# credit: patent US11312705B2

# EXPERIMENTAL SYSTEM: adenosine A2b receptor (A2bR) (Homo sapiens (Human))
# Sequence (P29275 whole entry): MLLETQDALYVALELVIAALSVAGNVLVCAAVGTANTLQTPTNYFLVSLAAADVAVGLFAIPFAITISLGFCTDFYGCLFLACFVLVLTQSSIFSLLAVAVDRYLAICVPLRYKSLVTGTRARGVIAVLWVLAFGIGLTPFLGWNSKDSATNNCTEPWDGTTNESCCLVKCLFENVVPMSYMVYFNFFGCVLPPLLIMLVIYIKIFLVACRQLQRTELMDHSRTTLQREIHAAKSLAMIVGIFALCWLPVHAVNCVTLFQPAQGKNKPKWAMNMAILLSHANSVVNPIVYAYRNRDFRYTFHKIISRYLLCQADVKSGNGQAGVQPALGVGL
# ASSAY INFO: Inhibition of adenosine A2b receptor cAMP signaling pathway (HTRF cAMP, CHO-K1/A2bR cells)
# Format: cell-based
# PARTICULARS: Table 3; CHO-K1/A2bR cells, ethyl carbazole 1 μM, cAMP HTRF
The entries below come with measured log10 of IC50 values attached.
Could you please treat all values as log10 of IC50 in nM?

### Prompt Return reported log10 of IC50; argument: Cc1cc(-c2c(-c3ccccc3)nc(N)n3cnnc23)cc(C2CC2)n1 [Example 30]
### Response 1.85

### Prompt Entry to check: Cc1cc(-c2c(-c3ccc(F)cc3)nc(N)n3cnnc23)cc(CF)n1 [Example 55]
### Response 1.89

### Prompt Entry to check: Cc1cc(-c2c(-c3ccc(C)o3)nc(N)n3cnnc23)cc(C(F)(F)F)n1 [Example 8]
### Response 2.31

### Prompt Entry to check: Cc1cc(-c2c(-c3ccccc3)nc(N)n3cnnc23)cc(Cl)n1 [Example 4]
### Response 1.92

### Prompt Entry to check: Cc1cc(-c2c(-c3ccc(F)cc3)nc(N)n3cnnc23)cc(Cl)n1 [Example 15]
### Response 2.00

###

# EXPERIMENTAL SYSTEM: adenosine A1 receptor (A1R) (Homo sapiens (Human))
# Sequence (P30542 whole entry): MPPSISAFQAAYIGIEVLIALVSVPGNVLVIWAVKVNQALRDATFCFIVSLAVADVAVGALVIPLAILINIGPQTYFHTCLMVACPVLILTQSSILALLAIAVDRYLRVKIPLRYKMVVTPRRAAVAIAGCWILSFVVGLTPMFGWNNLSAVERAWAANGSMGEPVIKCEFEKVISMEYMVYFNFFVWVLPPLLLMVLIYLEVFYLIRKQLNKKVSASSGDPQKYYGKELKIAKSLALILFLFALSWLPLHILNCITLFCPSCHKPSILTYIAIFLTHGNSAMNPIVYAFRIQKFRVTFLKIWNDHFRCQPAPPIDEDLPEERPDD
# ASSAY INFO: Inhibition of adenosine A1 receptor cAMP signaling pathway (HTRF cAMP, CHO-K1/A1R cells)
# Format: cell-based
# PARTICULARS: Table 2; CHO-K1/A1R cells, forskolin 10 μM, CPA 10 nM, cAMP HTRF
The entries below come with measured IC50 values attached.
Number plus unit, in that order.

# annotated cases, reported IC50 shown
| MOLECULE | VALUE REPORTED |
| --- | --- |
| Nc1nc(-c2ccccc2)c(-c2cc(F)c3ncccc3c2)c2nncn12 [Example 7] | 16 nM |
| Cc1cc(-c2c(-c3ccc(F)cc3)nc(N)n3cnnc23)cc(C(F)F)n1 [Example 51] | 418 nM |
| Cc1cc(-c2c(-c3ccccc3)nc(N)n3cnnc23)cc(C)n1 [Example 11] | 102 nM |

### Prompt Return reported IC50; argument: Cc1cc(-c2c(-c3ccccc3F)nc(N)n3cnnc23)cc(CF)n1 [Example 57]
### Response 302 nM

### Prompt Entry to check: Cc1cc(-c2c(-c3ccccc3F)nc(N)n3cnnc23)cc(Cl)n1 [Example 27]
### Response 71 nM

###

# EXPERIMENTAL SYSTEM: adenosine A2a receptor (A2aR) (Homo sapiens (Human))
# Sequence (P29274 whole entry): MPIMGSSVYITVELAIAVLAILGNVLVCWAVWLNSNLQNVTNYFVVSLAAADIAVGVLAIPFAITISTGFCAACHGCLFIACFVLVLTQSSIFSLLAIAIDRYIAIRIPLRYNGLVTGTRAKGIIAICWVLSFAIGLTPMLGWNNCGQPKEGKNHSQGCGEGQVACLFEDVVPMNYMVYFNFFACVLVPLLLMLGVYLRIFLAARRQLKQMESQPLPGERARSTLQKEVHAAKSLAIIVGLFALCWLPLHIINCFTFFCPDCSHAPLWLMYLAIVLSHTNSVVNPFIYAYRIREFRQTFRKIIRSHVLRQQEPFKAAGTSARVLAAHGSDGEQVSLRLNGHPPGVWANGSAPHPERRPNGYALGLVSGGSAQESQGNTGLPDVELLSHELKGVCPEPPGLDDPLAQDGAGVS
# ASSAY INFO: Inhibition of adenosine A2a receptor cAMP signaling pathway (HTRF cAMP, CHO-K1/A2aR cells)
# Format: cell-based
# PARTICULARS: Table 1, ethyl carbazole 20 nM
// map IC50 to label using low end: < 0.2 nM; middle: ≥ 0.2 nM and < 0.6 nM; high end: ≥ 0.6 nM

Reference set (5 entries):
| SMILES INPUT | EXPERIMENTAL SYSTEM | LABEL VALUE |
| --- | --- | --- |
| Cc1cc(-c2c(-c3ccccc3F)nc(N)n3cnnc23)cc(C)n1 | adenosine A2a receptor (A2aR) (Homo sapiens (Human)) | high end |
| Cc1cc(-c2c(-c3ccc(F)cc3)nc(N)n3cnnc23)cc(Cl)n1 | adenosine A2a receptor (A2aR) (Homo sapiens (Human)) | low end |
| Nc1nc(-c2ccccc2)c(-c2ccc3ncccc3c2)c2nncn12 | adenosine A2a receptor (A2aR) (Homo sapiens (Human)) | low end |
| Cc1cc(-c2c(-c3ccc(Cl)cc3)nc(N)n3cnnc23)cc(C(F)(F)F)n1 | adenosine A2a receptor (A2aR) (Homo sapiens (Human)) | high end |
| Cc1cc(-c2c(-c3ccccc3)nc(N)n3cnnc23)ccn1 | adenosine A2a receptor (A2aR) (Homo sapiens (Human)) | high end |

### Prompt Please report the category associated with "Cc1cc(-c2c(-c3ccc(Cl)cc3)nc(N)n3cnnc23)cc(C(F)F)n1" , nothing else.
### Response middle

### Prompt Entry to check: "Cc1cc(-c2c(-c3cccc(F)c3)nc(N)n3cnnc23)cc(C(F)(F)F)n1"
### Response middle

### Prompt Entry to check: "Cc1cc(-c2c(-c3ccccc3)nc(N)n3cnnc23)cc(Cl)n1"
### Response low end

###

The entries below come with measured IC50 values attached.
# EXPERIMENTAL SYSTEM: adenosine A2b receptor (A2bR) (Homo sapiens (Human))
# ASSAY INFO: Inhibition of adenosine A2b receptor cAMP signaling pathway (HTRF cAMP, CHO-K1/A2bR cells)
# Format: cell-based
# PARTICULARS: Table 3; CHO-K1/A2bR cells, ethyl carbazole 1 μM, cAMP HTRF
Value expressed in nM; do not type the unit.

# annotated cases, reported IC50 shown
| COMPOUND | EXPERIMENTAL SYSTEM | READOUT LABEL | UNITS SYMBOL | VALUE REPORTED |
| --- | --- | --- | --- | --- |
| Cc1cc(-c2c(-c3ccc(Cl)cc3F)nc(N)n3cnnc23)cc(C(F)F)n1 [Example 59] | adenosine A2b receptor (A2bR) (Homo sapiens (Human)) | IC50 | nM | 884 |
| Cc1cc(-c2c(-c3ccc(F)cc3F)nc(N)n3cnnc23)cc(C(F)F)n1 [Example 20] | adenosine A2b receptor (A2bR) (Homo sapiens (Human)) | IC50 | nM | 522 |
| Cc1cc(-c2c(-c3ccccc3F)nc(N)n3cnnc23)cc(C(F)F)n1 [Example 56] | adenosine A2b receptor (A2bR) (Homo sapiens (Human)) | IC50 | nM | 112 |

Let us examine a further case.
### Prompt Return reported IC50; argument: Cc1cc(-c2c(-c3ccccc3)nc(N)n3cnnc23)cc(C(F)(F)F)n1 [Example 1]
### Response 58.5

###

# EXPERIMENTAL SYSTEM: adenosine A2a receptor (A2aR) (Homo sapiens (Human))
# ASSAY INFO: Inhibition of adenosine A2a receptor cAMP signaling pathway (HTRF cAMP, CHO-K1/A2aR cells)
# Format: cell-based
# PARTICULARS: Table 2, ethyl carbazole 20 nM
READOUT LABEL: IC50

| SMILES INPUT | IC50 |
| --- | --- |
| Cc1cc(-c2c(-c3ccccc3)nc(N)n3cnnc23)cc2cccnc12 | 0.09 nM |
| Cc1cc(-c2c(-c3ccc(Cl)cc3)nc(N)n3cnnc23)cc(C(F)F)n1 | 0.48 nM |
| Cc1cc(-c2c(-c3ccccc3F)nc(N)n3cnnc23)cc(C(F)F)n1 | 1.68 nM |

### Prompt Return reported IC50; argument: "Cc1cc(-c2c(-c3ccc(F)cc3F)nc(N)n3cnnc23)cc(C(F)(F)F)n1"
### Response 3.96 nM

### Prompt Entry to check: "Cc1cc(-c2c(-c3ccc(F)cc3F)nc(N)n3cnnc23)cc(C(F)F)n1"
### Response 2.33 nM

### Prompt Entry to check: "Cc1cc(-c2c(-c3ccc(F)cc3)nc(N)n3cnnc23)cc(CF)n1"
### Response 1.04 nM

### Prompt Entry to check: "Cc1cc(-c2c(-c3ccccc3F)nc(N)n3cnnc23)cc(C)n1"
### Response 0.96 nM

###

# EXPERIMENTAL SYSTEM: adenosine A2a receptor (A2aR) (Homo sapiens (Human))
# ASSAY INFO: Inhibition of adenosine A2a receptor cAMP signaling pathway (HTRF cAMP, CHO-K1/A2aR cells)
# Assay type: cell-based
# PARTICULARS: Table 2, ethyl carbazole 20 nM
The entries below come with measured log10 of IC50 values attached.
Could you please treat all values as log10 of IC50 in nM?

# annotated cases, reported log10 of IC50 shown
| MOLECULE | EXPERIMENTAL SYSTEM | READOUT LABEL | VALUE REPORTED |
| --- | --- | --- | --- |
| Nc1nc(-c2ccccc2)c(-c2ccc3ncccc3c2)c2nncn12 [Example 3] | adenosine A2a receptor (A2aR) (Homo sapiens (Human)) | log10 of IC50 | -1.15 |
| Nc1nc(-c2ccccc2)c(-c2cc(F)c3ncccc3c2)c2nncn12 [Example 7] | adenosine A2a receptor (A2aR) (Homo sapiens (Human)) | log10 of IC50 | -0.80 |
| Cc1cc(-c2c(-c3ccc(F)cc3)nc(N)n3cnnc23)cc(C(F)F)n1 [Example 51] | adenosine A2a receptor (A2aR) (Homo sapiens (Human)) | log10 of IC50 | -0.44 |

### Prompt Return reported log10 of IC50; argument: Cc1cc(-c2c(-c3ccccc3F)nc(N)n3cnnc23)cc(Cl)n1 [Example 27]
### Response -0.30

### Prompt Entry to check: Cc1cc(-c2c(-c3ccc(F)cc3)nc(N)n3cnnc23)cc(C)n1 [Example 28]
### Response -0.28

### Prompt Entry to check: Cc1cc(-c2c(-c3ccccc3)nc(N)n3cnnc23)cc(C)n1 [Example 11]
### Response -0.82

### Prompt Entry to check: Cc1cc(-c2c(-c3ccccc3)nc(N)n3cnnc23)cc(Cl)n1 [Example 4]
### Response -1.10

### Prompt Entry to check: Cc1cc(-c2c(-c3ccc(Cl)cc3F)nc(N)n3cnnc23)cc(C(F)F)n1 [Example 59]
### Response 0.48

### Prompt Entry to check: Cc1cc(-c2c(-c3ccccc3F)nc(N)n3cnnc23)cc(CF)n1 [Example 57]
### Response 0.41
